- experiment_description: chemical genetic growth profiling, strain panel (AID 1159580);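 also: tested at 20 µM; growth read once vehicle control cultures reached saturation at 30 °C; 1 = growth at the plate median or of vehicle wells; lower values mean less growth of the strain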
- condition_details: S. cerevisiae deletion strains, growth OD, locus YNL233W, strain BNI4, active compounds read low
The whole screen tested about 5,500 compounds, of which about 2,000 (36%) were called active. Another 18% or so got no clear call; they are omitted. The list shows a part of the results.
Recorded normalized growth values for a group of molecules are listed next.
parameter: normalized growth

INSERT INTO results (molecule, parameter, data_value) VALUES
  ('CCCCCCCCCCCC(=O)OCC(COP(=O)(O)OCC(O)COP(=O)(O)OCC(COC(=O)CCCCCCCCCCC)OC(=O)CCCCCCCCCCC)OC(=O)CCCCCCCCCCC (configuration not stated)', 'normalized growth', 0.91),
  ('O=C(O)COc1ccc(Cl)cc1Cl', 'normalized growth', 1.03),
  ('NCCCCCC(=O)O', 'normalized growth', 0.994),
  ('NCCCCC(=O)O', 'normalized growth', 1.03),
  ('NCCCC(=O)O', 'normalized growth', 1),
  ('O=C(O)CCCCCCCC(=O)O', 'normalized growth', 0.994),
  ('C=NC(C(=O)NC1C(=O)N2C1SC(C)(C)C2C(=O)O)c1ccccc1 (configuration not stated)', 'normalized growth', 1.02);

The origin of these recorded values is PubChem BioAssay AID1159580.
